From: patent US20250250357A1

biological target: T1, human MSLN-R2-his protein (human, UniProt Q13421 391-486); experiment: ELISA on coated MSLN-R2; antibody 100 nM
T1 construct: Region 2 of human mesothelin, made in HEK293E cells, His-tagged; also called human MSLN-R2 protein; hMSLN-R2-his; not shown: His tag
T1 sequence (Q13421 other isoform, or with tags, fused parts or gaps): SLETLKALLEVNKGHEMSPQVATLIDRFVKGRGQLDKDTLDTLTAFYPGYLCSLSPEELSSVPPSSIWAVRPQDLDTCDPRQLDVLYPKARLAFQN
# Lookup of reported OD450 keyed by entry
Entry rule: numbers only, all in OD450.

Worked cases, answers included:
For the binder shown here, S009-F8-29.1 (antibody, human IgG1, kappa, V domains shown) VH: QVQLQQSGAELARPGASVKMSCKASGYTFISYTMHWVKQRPGQGLEWIGYINPSSGYTKYNQKFKDKATLTADKSSSTAYMQLNSLTSEDSAVYYCARYYSNPDYYAMDYWGQGTSVTVSS VL: QIVLTQSPAIMSASPGEKVTITCSASSSVSYMHWFQQKPGTSPKLWIYSTSNLASGVPARFSGSGSGTSYSLTISRMEAEDAATYYCQQRSSYPLTFGGGTKLELKR , give the reported OD450.
0.06

For the binder shown here, S009-F8-5.15 (antibody, human IgG1, kappa, V domains shown) VH: QVQLQQPGTELVKPGASVKLSCKASGYTFTSYWMHWVKQRPGQGLEWIGHSNPSNGGTNYNEKFKSKATLTVDKSSSTAYMQLSSLTSEDSAVYYCARWVRGSNYEYFDVWGTGTTVTVSS VL: DIVMTQSQKFMSTTVGDRVSIICKASQNVGSAVAWCQQKPGQSPKLLIYSASNRYTGVPDRFTGSGSGTDFTLTISNMQSEDLADYFCQQYSSYPLTFAGGTKLEIKR , give the reported OD450.
0.05

For the binder shown here, S009-F8-15.19 (antibody, human IgG1, kappa, V domains shown) VH: EFQLQQSGPELVKPGASVKISCKASGYSFTDYNMNWVKQSNGKSLEWIGIINPYYGTTSNNQNFKGKATLTVDQSSSTAYMQLNSLTSDDSAVYYCARWLRRDAMDYWGQGTSVTVSS VL: DIVMTPSHKFMSTSVGDRVSIACKASQDVGSSVAWYQQKPGQSPKLLIYWTSTRHTGVPDRFTGSGSGTDFTLTISNVQSEDLADYFCQQYSSYPWTFGGGTKLEIKR , give the reported OD450.
0.05

For the binder shown here, S009-F8-36.12 (antibody, human IgG1, kappa, V domains shown) VH: EVQLQQSGPELVKPGASVKISCKASGYTFTDYYMNWVKQSHGKSLEWIGDINPNNGGTSYNQKFKGKATLTVDKSSSTAYMELRSLTSEDSAVYYCASWGYGSSSRGYFDYWGQGTTLTVSS VL: QIVLSQSPAILSASPGEKVTMTCRASSSVSYMHWYQQKPGSSPKPWIYATSNLASGVPARFSGSGSGTSYSLTISRVEAEDAATYYCQQWSSNPWTFGGGTKLEIKR , give the reported OD450.
0.05

For the binder shown here, S009-F8-12.13 (antibody, human IgG1, kappa, V domains shown) VH: QVQLQQPGAELVKPGASVKLSCKASGYTFTSYWMHWVKQRPGQGLEWIGMIHPNSGSTNYNEKFKSKATLTVDKSSSTAYMQLSSLTSEDSAVYYCARRTPIITLVGHWYFDVWGTGTTVTVSS VL: DIVMTQSHKFMSTSVGDRVSITCKASQDVGTAVAWYQQKPGQSPKLLIYWASTRHTGVPDRFTGSGSGTDFTLTISNVQSEDLADYFCQQYSSYPLTFGAGTKLELKR , give the reported OD450.
0.15

***
For the binder shown here, Tab106 (YP218, hIgG1) (antibody, V domains shown, also called YP218 human IgG1 antibody) VH: QQQLEESGGGLVKPEGSLTLTCKASGFDLGFYFYACWVRQAPGKGLEWIACIYTAGSGSTYYASWAKGRFTISKASSTTVTLQMTSLAAADTATYFCARSTANTRSTYYLNLWGPGTLVTVSS VL: DVVMTQTPASVSEPVGGTVTIKCQASQRISSYLSWYQQKPGQRPKLLIFGASTLASGVPSRFKGSGSGTEYTLTISDLECADAATYYCQSYAYFDSNNWHAFGGGTEVVVRT , give the reported OD450.
0.22

For the binder shown here, S009-F8-7.5 (antibody, human IgG1, kappa, V domains shown) VH: DVQLQESGPGLVKPSQSLSLTCSVTGYSITSGYYWNWIRQFPGNKLEWMAYIRYDGSNNYNPSLKNRISIIRDTSKNQFFLRLNSVTTEDTATYYCAKSYYGMDDWGQGISVTVSS VL: DIQMTQSPASLSASVGETVTITCRTSGDIHNYLAWYQQKQGKSPQLLVYKAKTLENGVPSRFTGSGSGTQFSLKIDSLQPEDFGTYYCQHFWTTPYTFGGGTKLEIKR , give the reported OD450.
2.32

For the binder shown here, S009-F8-22.23 (antibody, human IgG1, kappa, V domains shown) VH: QVQLKQSGPGLVQPSQSLSITCTVSGFSLFSYGVHWVRQSPGKGLEWLGVIWSGGSTDYNAAFISRLSISKDNSKSQVFFKMNSLQADDTAMYYCARNGGSMITTLYYAMDYWGQGTSVTVSS VL: DVVMTQTPLSLPVSLGDQASISCRSSQSLVHSYGNTYLHWYLQKPGQSPKLLIYKVSNRFSGVPDRFSGSGSGTDFTLKISRVEAEDLGVYFCSQSTHIPFTFGGGTKLEIKR , give the reported OD450.
0.17
